Data credit: PubChem BioAssay (NCATS)

Assay: qHTS of pediatric cancer cell lines to identify multiple opportunities for drug repurposing: Confirmatory screen for SK-N-MC cells (AID 1347111);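 note: cells exposed to compound for 48 h before the readout; nearly all actives have a fitted effect of over 70% in size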
Conditions: SK-N-MC cell viability; series mostly up to 45.9 µM
Procedure: Drug repurposing or repositioning has been offered as a strategy for drug development in oncology programs. […] [1] Shen, M et al. Quantitative high-throughput phenotypic screening of pediatric cancer cell lines identifies multiple opportunities for drug repurposing. […] Cells were assayed in growth media at a density of 500-1,000 cells/well. […] After a 15 min incubation at room temperature, samples were analyzed for luminescence intensity using a ViewLux High-throughput CCD imager equipped with clear filters.
Inconclusive results are not listed. Activity calls are given as the source filed them. Calls come from the whole dose curve; as a rule, active = well fitted cell-killing curve with a large enough effect; inconclusive = small, poorly fitted or top-dose-only effect; inactive = no such curve, though single readings can be large or run the other way.
Hi! Could you answer with just one of these? yes (1) = active, no (0) = inactive

Q) Which outcome did this test record for the compound "Cc1ccccc1-n1c(Cn2cnc3c(N)ncnc32)nc2cccc(C)c2c1=O" ?
A) no (0)

Q) Which outcome did this test record for the compound "CC(C)(O)C=CC(=O)[C@](C)(O)[C@H]1[C@H](O)C[C@]2(C)[C@@H]3CC=C4[C@@H](C=C(O)C(=O)C4(C)C)[C@]3(C)C(=O)C[C@@]12C" ?
A) yes (1)

Q) Which outcome did this test record for the compound C[C@H]1CCCC=CC2C[C@H](O)C[C@@H]2[C@H](O)C=CC(=O)O1 (stereo partly specified) ?
A) yes (1)

Q) Which outcome did this test record for the compound "O=C(O)CCCOc1ccc(Cl)cc1Cl" ?
A) yes (1)

Q) Which outcome did this test record for the compound "CC(=O)[O][Hg][c]1ccccc1" ?
A) yes (1)

Q) Which outcome did this test record for the compound "O=C(N[C@H]1CN2CCC1CC2)c1ccc(Cl)cc1" ?
A) yes (1)
